molecular target: HIV Env, isolate P0402_C2_11 (HIV); experiment: cell-based or functional assay
ENDPOINT: IC80 (µg/ml) with constrains (µg/mL)
Kindly provide the numeric value in µg/mL only, without the unit symbol.

// solved cases for IC80 (µg/ml) with constrains follow
| BINDER | MEASUREMENT UNITS | IC80 (µg/ml) with constrains |
| --- | --- | --- |
| ePGDM13 (antibody, V domains shown) VH: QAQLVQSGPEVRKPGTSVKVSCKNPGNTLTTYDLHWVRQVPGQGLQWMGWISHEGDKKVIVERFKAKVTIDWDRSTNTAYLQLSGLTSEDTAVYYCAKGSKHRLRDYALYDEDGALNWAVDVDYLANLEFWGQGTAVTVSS VL: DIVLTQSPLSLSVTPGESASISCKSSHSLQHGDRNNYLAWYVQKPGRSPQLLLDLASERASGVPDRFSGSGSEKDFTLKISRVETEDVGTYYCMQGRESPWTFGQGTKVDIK | µg/mL | 0.006 |
| ePGDM9 (antibody, V domains shown) VH: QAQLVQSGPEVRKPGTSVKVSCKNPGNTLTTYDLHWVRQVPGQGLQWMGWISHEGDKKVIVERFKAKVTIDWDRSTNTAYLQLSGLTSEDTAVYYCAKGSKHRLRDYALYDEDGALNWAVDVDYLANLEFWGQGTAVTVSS VL: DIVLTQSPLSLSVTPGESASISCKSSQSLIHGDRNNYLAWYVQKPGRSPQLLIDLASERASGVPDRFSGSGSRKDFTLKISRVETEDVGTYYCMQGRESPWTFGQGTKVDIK | µg/mL | 0.003 |
| ePGDM5 (antibody, V domains shown) VH: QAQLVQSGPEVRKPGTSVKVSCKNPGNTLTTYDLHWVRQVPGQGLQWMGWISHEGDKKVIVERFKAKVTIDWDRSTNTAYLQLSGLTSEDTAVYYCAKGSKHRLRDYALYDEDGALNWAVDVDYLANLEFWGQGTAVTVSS VL: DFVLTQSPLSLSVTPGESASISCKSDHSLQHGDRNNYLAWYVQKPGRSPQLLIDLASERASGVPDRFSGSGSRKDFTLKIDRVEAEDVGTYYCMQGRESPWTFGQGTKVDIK | µg/mL | 0.015 |

// recorded IC80 (µg/ml) with constrains for PGDM1400 (antibody, V domains shown) VH: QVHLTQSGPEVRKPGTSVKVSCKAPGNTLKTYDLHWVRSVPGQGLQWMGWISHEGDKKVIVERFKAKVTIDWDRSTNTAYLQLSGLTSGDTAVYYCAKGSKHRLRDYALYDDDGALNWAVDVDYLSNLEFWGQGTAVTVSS VL: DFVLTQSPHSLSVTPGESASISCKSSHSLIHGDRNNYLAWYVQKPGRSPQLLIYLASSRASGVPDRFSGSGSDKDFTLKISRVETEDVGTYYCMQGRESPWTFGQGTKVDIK : 0.027

Numbers sourced from patent US20230134571A1.
